Provide the reported melting point of each item.

GET /values?readout=melting point&item= CCOC(=O)COc1c(CO)c(C(F)(F)F)nn1C
57 to 59 °C

Fill blank: measured melting point of the compound Oc1cccc2ccc(C=Cc3ccccc3)nc12 is ____.
70 to 72 °C

Please give the measured melting point for this compound: CC(C)(C)CC(C)(C)C(CCC(=O)OO)CC(=O)OO (stereo not drawn)
60 to 62 °C

What value of measured melting point is listed for COc1ccc(-c2cc(OCC(=O)O)nc(Nc3ccc(OC)c(Cl)c3)n2)cc1 ?
258 to 260 °C

Returns the measured melting point for the input compound. Input: Nc1nc(=O)n(C2OC(CO)CC2O)cc1F (stereo not drawn)
137 to 138 °C

Request the reported melting point associated with COC(=O)/C=C/c1ccc(N)nc1
173 to 175 °C

Give melting point for each of the items listed below.
1. Cc1cc(C)n(-c2nc(Nc3ccc(Cl)cc3)cnc2CN)n1
2. CC(=O)CCC(=O)N(C)c1nnc(-c2cccnc2)s1
3. O=C(OCCc1ccc(OCc2ccc(Cl)cc2)cc1)c1cccnc1
4. CCSc1cc(C)nc(SCC)c1NC(=O)CCCCCSc1nc2ccccc2s1
5. CCOC1CN(Cc2cc(OC)c(OC)c(OC)c2)Cc2cc(OC)c(O)cc21 (stereo not drawn)

173 to 176 °C
146 to 147 °C
109 to 110 °C
81 to 83 °C
94 to 96 °C

# map each compound to its melting point
1. Nc1nccc(Oc2ccc3c(C(=O)O)cccc3c2)n1
2. CCCn1c(=O)c2c(NC)n[nH]c2n(Cc2ccncc2)c1=O

205 °C
> 300 °C

----------
PROPERTY MEASURED: melting point

I would be grateful if you could share the reported melting point for CC(=O)Oc1cccc2c1OC(C)(C)C2 .
49 to 50 °C

Look up melting point: O=C(NC(=O)c1c(F)cccc1F)Nc1cc(Cl)c(S(=O)C(F)(F)C(F)F)cc1Cl (centres undefined)
216 to 220 °C

State recorded melting point for all listed molecules.
1. O=C(O)Cn1cc(Cc2nc3c(F)c(F)cc(F)c3s2)c2cccc(F)c21
2. Brc1cccc(C2Cc3cnc(Nc4ccc(CCN5CCN(c6ccccc6)CC5)cc4)nc3-c3ccccc32)c1 (centres undefined)
3. CCCOc1ccc(CN2CCC(C(N)=O)CC2)cc1
4. O=c1oc2ccccc2c(O)c1CCOc1ccccc1
5. CC(=O)N1CCC(Oc2c(F)c(F)c(F)c(F)c2F)(c2ccccc2)CC1
6. O=C1Nc2ccccc2C(c2ccccc2)N1CC1CCN(Cc2ccccc2)CC1 (centres undefined)
7. Cc1cc(SC(C)C)c(NC(=O)CCCCCSc2nc3ccccc3o2)c(SC(C)C)n1
8. Cc1onc(NS(=O)(=O)c2ccccc2)c1Br

1. 194 to 196 °C
2. 113 to 115 °C
3. 142 to 146 °C
4. 157 to 159 °C
5. 115 to 120 °C
6. 163 to 165 °C
7. 98 to 100 °C
8. 128 to 130 °C

Required: melting point, one value per molecule below.
1. FC(F)(F)Oc1ccc2[nH]c(S)nc2c1
2. CCN(CC)C(=O)c1cc(-c2ccc(OC)cc2)c2ccccc2c1OC
3. CC(C(N)=O)c1ccc(Oc2ccc(F)cc2F)cc1 (centres undefined)
4. C[N+]([O-])=NNc1cccnc1

305 to 307 °C
129 to 130 °C
107 to 110 °C
95 to 97 °C

----------
Consider the following compounds; for each one, report its melting point.

Answered examples (3):
Which measured melting point value corresponds to COc1cc(NC(C)=O)c(Cl)cc1C(=O)CCCCN1CCCCC1 ?
74 to 75 °C

Value lookup for melting point; key = Cc1ncc(I)nc1C
51 to 54 °C

So what does the record say about melting point for CC#CC(C)n1nnc2cc3c(=O)n(C(C)Cn4ncnn4)nnc3cc2c1=O (stereo not drawn) ?
72 to 74 °C

Okay, here is my list. What is melting point for each of these?
1. CCCc1c(OCc2ccc(OCC(=O)O)cc2)ccc(C(C)=O)c1O
2. COc1cc(OC)nc(Cc2ccccc2NC(=O)OC(C)(C)C)n1

["140 to 142 °C", "98 to 100 °C"]

Provide reported melting point for each item, in the same order as listed.
1. CC(C)Oc1c(C(=O)NCc2ccccc2)oc2ccc(Cl)cc12
2. O=C(O)CCCC1Cc2ccc(Cl)cc2C1=O (stereo not drawn)
3. CC(C)(C)OC(=O)N1CCC(c2ccc(N3C[C@@H](CCO)OC3=O)cc2F)CC1

80 to 82 °C
141 to 142 °C
120 to 122 °C

----------
Exercise: for every item that follows, state its recorded melting point.

Endpoint output: melting point of C#CCOc1ccc(C)cc1S(N)(=O)=O . Value?
169 to 170 °C

Entry CC(O)c1cccc(Oc2ncccc2OCCCc2ccncc2)c1 (centres undefined) : reported melting point = ?
93 to 97 °C

Please look up its melting point: CC(C)Cn1nnc(-c2cccc(-c3ccnc4c(C(=O)c5cccs5)cnn34)c2)n1
141 °C

I have this compound here, O=C(NCCCCC1CCSS1)N1CCCCC1 (centres undefined) , and I need its recorded melting point.
90 to 91 °C

Tell me the measured melting point of O=C(NCN1CCOCC1)c1cn(-c2ccc(F)cc2)c2cc(-c3ccncc3)ccc2c1=O , please.
258 to 260 °C

Suppose we examine the compound Cn1cncc1C(O)(c1ccc(Cl)cc1)c1ccc2nc(NN)nc(-c3cccc(Cl)c3)c2c1 (centres undefined) ; what melting point value has been reported?
186 °C

I am curious: what melting point value has been reported for C=CCN(C)c1c(C=NO)c(=O)n(C)c(=O)n1C ?
95.5 to 97.1 °C

Please give the measured melting point for this compound: Cc1ccccc1N(C(=O)Nc1cc(C)c(S(=O)(=O)C[N+](=O)[O-])c(C)c1)C(C)C
177 to 178 °C

Hi there! I need melting point for each item below, if you can.
1. Cc1cccc2[nH]c(Nc3ccc(C(=O)O)cc3)nc12
2. CC(=O)OC1C=C(Br)C(=O)CO1 (centres undefined)
3. COc1cc(C(=O)c2nc(NS(C)(=O)=O)c3ccccn23)ccc1[N+](=O)[O-]
4. CCCCCCCc1ccc(CCCC(N)(CO)CCO)cc1 (centres undefined)
5. CC(O)c1cc(F)ccc1Oc1nc2ccc(-n3cc(-c4ccccc4)nn3)cc2cc1Cc1ccccc1 (centres undefined)
6. CS(=O)(=O)c1ccc(-c2nc(C(F)(F)F)nn2-c2ccc(O)cc2)cc1

1. 375 to 378 °C
2. 78 to 80 °C
3. 231 °C
4. 68 to 71 °C
5. 103 °C
6. 246 °C

----------
What melting point was measured for each of the following?

Quick one: give me melting point for each item below, same order please.
1. Cn1cncc1Cn1nnnc1-c1cccc(Cl)c1Cl
2. CCOC(=O)Cc1cccc(Cc2nc3cc(F)cc(F)c3s2)c1
3. COCCCNc1c([N+](=O)[O-])cnc2ccccc12
4. COC(=O)c1ncn2c1c(OC)nc1ccccc12
5. CC1CN(c2ccc(N3CC(CNC(=O)CC#N)OC3=O)cc2F)CCC1=CC#N (configuration not stated)
6. CN1C(=O)CC[C@]2(C)c3ccc(-c4ccc(C(F)(F)F)cc4F)cc3CC[C@@H]12

166 to 168 °C
66 to 67 °C
93 to 95 °C
189 to 191 °C
102 to 104 °C
72 to 79 °C

----------
PROPERTY MEASURED: melting point

Worked cases, melting point given:
What value of melting point has been reported for the following compound? CCOC(=O)c1[nH]c(=O)[nH]c(=O)c1[N+](=O)[O-]
259 °C

Given COC(=O)c1ccccc1-c1ncccc1N , state its recorded melting point.
188 to 189 °C

Request the reported melting point associated with O=C1CCN(Cc2ccc(C(F)(F)F)cc2)CC1C(c1ccc(F)cc1)c1ccc(F)cc1 (stereo unspecified)
126 to 127 °C

Items follow; give melting point for each.
1. Cc1nc2ccccc2n(-c2ccc(Cl)cc2)c1=O
2. CNC(=O)c1ccccc1Nc1nc(Nc2ccc3c(n2)CCCCS3)ncc1Cl
3. CN1c2ccccc2C(c2ccccc2Br)=Nc2cccnc21

185 to 187 °C
169 to 174 °C
139 to 140 °C

----------
PROPERTY MEASURED: melting point

Worked cases, melting point given:
What does the record list as melting point for CCN1C(=O)C2C3C=CC(CC3)C2(c2ccc(Cl)c(Cl)c2)C1=O (centres undefined) ?
122 to 126 °C

Consider the molecule shown here: O=C(O)C1Cc2c(c(Cl)cc3c(=O)c4ccccc4oc23)O1 (centres undefined) What is its recorded melting point?
292 to 295 °C

What value of melting point has been reported for the following molecule? CC(C)(C)c1ccc(C(=O)CCCCCC2CCCCC2)cc1NC(=O)CC1c2ccccc2Oc2ccccc21
134 °C

Switching to the query record.
I'd like to know its melting point. The molecule in question is CSc1cccc(-c2nc(=O)c3ccccc3s2)n1
207 to 208 °C
